# experimental_target: PRMT5 MTA (Homo sapiens (Human), UniProt O14744)
# Sequence (O14744 whole entry, looked up): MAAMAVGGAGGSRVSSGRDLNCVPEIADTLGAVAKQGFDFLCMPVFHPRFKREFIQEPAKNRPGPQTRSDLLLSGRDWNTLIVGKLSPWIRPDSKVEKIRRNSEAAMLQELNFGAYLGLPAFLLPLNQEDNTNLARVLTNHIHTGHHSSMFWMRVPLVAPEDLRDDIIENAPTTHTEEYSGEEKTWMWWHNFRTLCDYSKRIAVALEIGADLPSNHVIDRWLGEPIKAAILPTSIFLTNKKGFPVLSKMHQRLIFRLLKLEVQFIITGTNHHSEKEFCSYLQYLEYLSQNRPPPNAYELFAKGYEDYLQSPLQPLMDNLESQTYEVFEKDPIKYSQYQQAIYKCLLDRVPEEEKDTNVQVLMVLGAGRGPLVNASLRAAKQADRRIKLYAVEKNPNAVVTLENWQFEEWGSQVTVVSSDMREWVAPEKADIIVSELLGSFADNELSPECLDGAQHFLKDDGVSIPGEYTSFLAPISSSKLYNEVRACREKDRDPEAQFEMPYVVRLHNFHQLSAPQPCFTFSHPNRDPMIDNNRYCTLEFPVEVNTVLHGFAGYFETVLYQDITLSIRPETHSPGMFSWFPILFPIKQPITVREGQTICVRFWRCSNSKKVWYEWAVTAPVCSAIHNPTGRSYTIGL
# Sequence (Q9BQA1 whole entry partner, looked up): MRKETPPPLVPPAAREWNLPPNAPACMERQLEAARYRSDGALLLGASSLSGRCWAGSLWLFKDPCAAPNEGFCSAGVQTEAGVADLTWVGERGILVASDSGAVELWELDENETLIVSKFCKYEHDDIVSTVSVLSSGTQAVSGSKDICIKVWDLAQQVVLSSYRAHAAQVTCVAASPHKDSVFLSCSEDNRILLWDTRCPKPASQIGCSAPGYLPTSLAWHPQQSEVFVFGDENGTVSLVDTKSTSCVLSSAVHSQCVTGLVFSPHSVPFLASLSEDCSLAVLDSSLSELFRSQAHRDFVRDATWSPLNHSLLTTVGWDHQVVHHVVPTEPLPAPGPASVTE
# test_details: PRMT5 inhibitory activity assay in vitro, enzyme solution with MTA ([3H]-SAM Flashplate)
# Type: biochemical
# condition_info: MTA 2.0 um; read-out: Enzyme activity inhibition rate PRMT5 MTA (2.0 um) IC50 (nm)
Quick list: IC50 per entry.
All answers are understood in nM, so give the number only.

• Cc1cc2cc(C(=O)N(Cc3nc4ccccc4s3)C34CC(C3)C4)ccc2nc1N = 2.6

Problem: Dear colleague, please send me the reported IC50 for CC(C)CN(Cc1cn2cc(C(F)(F)F)ccc2n1)C(=O)c1ccc2nc(N)c3cnn(C)c3c2c1 when you can.
Result: 1.7

Problem: Identify IC50 associated with the compound COCC(C1CC1)N(Cc1nc2ccccc2s1)C(=O)c1ccc2nc(N)c3c(c2c1)CCC3 (stereo not drawn)
Result: 2.9

Data provenance: patent US20240376126A1
